system: OVCAR-3 ovarian; assay: NCI tumour cell line growth inhibition, 48 h
readout_name: TGI (µM)

| compound | unit_of_measure | value_prefix | recorded_measurement |
| --- | --- | --- | --- |
| COc1ccc(C2CC(c3ccccc3)=NN2C(=O)c2cc(OC)c(OC)c(OC)c2)cc1O (configuration not stated) | µM | = | 3.99 |
| C=C1C2C[C@@H]3O[C@H]4C[C@H]5O[C@@]6(C[C@@H]7O[C@]8(C[C@H](C)[C@@H]9O[C@@H]%10CC(C=O)O[C@@H]%10C[C@@H]9O8)C[C@H](C)[C@@H]7O6)C[C@H]5O[C@H]4[C@H](C)[C@H]3OC(=O)C[C@H]3CC[C@@H]4OC5[C@H]6O[C@]7(CC[C@H]8CC(=C)[C@H](CC[C@@H](C[C@H]1C)O2)O8)CC6O[C@@H]5[C@@H](O7)[C@H]4O3 (some centres not stated) | µM | > | 1 |
| O=C1C(Cl)=C(Cl)C(=O)N1c1ccccc1Cl | µM | > | 100 |
| Fc1ccc(Nc2ncc(-c3cc(F)c(Cl)cc3Cl)s2)cc1Cl | µM | = | 23.9 |
| Cc1cc(Cl)ccc1NC(=O)CC1SC(=NC(=O)c2ccccc2Cl)NC1=O (configuration not stated) | µM | = | 36.3 |
| O=C(CN1CCN(CCN2C(=O)c3cccc4cccc(c34)C2=O)CC1)Nc1ccc2ncsc2c1 | µM | = | 21.5 |
| CCC1=C[C@@H]2CN(C1)Cc1c([nH]c3ccccc13)[C@@](C(=O)OC)(c1cc3c(cc1OC)N(C)[C@H]1[C@@](O)(C(=O)OC)[C@H](OC(C)=O)[C@]4(CC)C=CCN5CC[C@]31[C@@H]54)C2 | µM | < | 0.01 |
| NC(=O)c1cc(I)ccc1NC(=O)/C=C/c1ccccc1Cl | µM | = | 0.638 |
| Cn1cnc([N+](=O)[O-])c1Sc1nc2ccccc2o1 | µM | = | 14.7 |
| CS(=O)(=O)O[C@H]1C(=O)N(c2cc3c4ccccc4ccc3c3ccccc23)[C@@H]1c1ccccn1 | µM | = | 14.9 |
| COC(=O)[C@H](C)NC(=O)C1(CNC(=O)[C@H](C)NC(=O)OC(C)(C)C)Cc2ccccc2-c2ccccc2C1 | µM | = | 49.6 |
| COc1cccc(C2c3cc4c(cc3OC(NNC(N)=O)C2C)OCO4)c1O (configuration not stated) | µM | = | 29.6 |
| CCC1(OC(=O)CNC)C(=O)OCc2c1cc1n(c2=O)Cc2cc3ccccc3nc2-1 (configuration not stated) | µM | = | 0.401 |
| COc1ccc(C2=NN(C=O)C(c3ccc(OS(=O)(=O)c4ccc(C)cc4)c(OC)c3)C2)cc1 (configuration not stated) | µM | > | 100 |
| CC(=O)Nc1ncc2c(n1)-c1ccccc1OC2c1ccccc1 (configuration not stated) | µM | > | 100 |
| COc1ccc(NC(=S)C#N)cc1 | µM | > | 100 |
| O=C(O)CCC(=O)Oc1ccc(O)c2c1CCCC2=O | µM | > | 100 |

---

Each entry below carries its reported TGI.
test system: K-562 leukemia; experiment: NCI tumour cell line growth inhibition, 48 h
readout_name: TGI

| compound | readout_name | recorded_measurement |
| --- | --- | --- |
| COc1ccc2nc3cc([N+](=O)[O-])ccc3c(NNc3ccc([N+](=O)[O-])cc3)c2c1 | TGI | > 100 µM |
| Cc1cn(CC2=NC3CCCCC3N2)c(=O)[nH]c1=O (stereo unspecified) | TGI | > 100 µM |
| O=[N+]([O-])c1ccc(NNN=Nc2ccc(-c3nc4ccccc4[nH]3)cc2)c([N+](=O)[O-])c1 | TGI | 79.7 µM |
| Clc1ccc(OCc2nnc3sc(SSc4nn5c(COc6ccc(Cl)cc6)nnc5s4)nn23)cc1 | TGI | > 100 µM |
| Cc1cc(O)c2c(c1)C(C1OC(CO)C(O)C(O)C1O)c1cc(O)cc(O)c1C2=O (stereo unspecified) | TGI | > 100 µM |
| COc1ccc2nc3c(C)cc4ccccc4n3c2c1 | TGI | > 100 µM |
| O=[N+]([O-])c1ccc(Cc2nc3cc4ccccc4cc3[nH]2)cc1C(F)(F)F | TGI | 30.3 µM |
| N#CC(C(=O)CCC(=O)Nc1ccc(Cl)cc1)c1ccc(Cl)cc1 (stereo unspecified) | TGI | > 100 µM |
| CC1(C)CCCC2CC2CCC(C)(C)C1=O (stereo unspecified) | TGI | 40.1 µM |
| O=C1N=CN=C2C=CC(Cl)=C(I)C12 (stereo unspecified) | TGI | > 100 µM |
| COc1ccc(Cc2cc(OC)c(OC)c(OC)c2)cc1 | TGI | 22 µM |

---

system: UO-31 renal; assay: NCI tumour cell line growth inhibition, 48 h; in the data active means GI50 below about 0.43 µM; inactive means the rest
Possible outcomes: active, inactive

| compound | class |
| --- | --- |
| O=c1c2cccc(F)c2sc2c(NCCCNCCO)nc3ccccc3c12 | inactive |
| c1ccc(COCC[P+](c2ccccc2)(c2ccccc2)c2ccccc2)cc1 | inactive |
| O=C(NCCCl)NCCN1c2nc3ccccc3cc2Sc2cc3ccccc3nc21 | inactive |
| C=C1C[C@@H](O)[C@@H](Br)C(C)(C)[C@]12CCC(C)(Br)C(Cl)C2 (stereo partly specified) | inactive |
| Cc1ccc(/C=C(/C#N)n2nnc3ncccc32)cc1 | inactive |
| COc1cc(N2CCN(C(C)C)CC2)ccc1Nc1nc(Nc2ccc(F)cc2C(=O)NCC(O)CO)c2cc[nH]c2n1 (stereo unspecified) | inactive |
| CCCCCCCCCCCCNC(=O)N[C@H](C(=O)N[C@H]1/C=C/CCNC(=O)/C=C/[C@H](C)NC1=O)C(C)C | inactive |
| COC1=CC(c2ccc[nH]2)=N/C1=C\c1[nH]c(C)c(C(=O)Oc2ccccc2)c1C | active |
| O=C(COc1cccc(/C=C2\COc3ccccc3C2=O)c1)c1ccccc1 | inactive |
| CC[O-].CC[O-].COc1ccc(C(=O)[CH-]C(C)=O)cc1OC.COc1ccc(C(=O)[CH-]C(C)=O)cc1OC.[Ti+4] | inactive |
| O=C(CN1CCN(CCN2C(=O)c3cccc4cccc(c34)C2=O)CC1)Nc1ccc2ncsc2c1 | inactive |

---

test system: TK-10 renal; test: NCI tumour cell line growth inhibition, 48 h
Each entry below carries its reported TGI.

| compound | assayed_target | TGI |
| --- | --- | --- |
| O=C(CN1CCN(CCN2C(=O)c3cccc4cccc(c34)C2=O)CC1)Nc1ccc2ncsc2c1 | TK-10 renal | 23.7 µM |
| N.N.N.N.N.N#Cc1nn[n-]n1.[Cl-].[Co+3] | TK-10 renal | > 100 µM |
| Cc1occc1C(=S)Nc1ccc(Cl)c(C(=O)OCC(C)C)c1 | TK-10 renal | 33.5 µM |
| COc1ccc(/C(=C/c2ccc3ccccc3c2)c2nn[nH]n2)cc1OC | TK-10 renal | > 100 µM |
| O=C(O)C1CC(C2CCCCN2)CN2CCCCC12 (stereo not drawn) | TK-10 renal | > 100 µM |
| COc1ccc(C2CC(c3ccc(NS(=O)(=O)c4cc([N+](=O)[O-])ccc4C)cc3)=NN2S(=O)(=O)c2cc([N+](=O)[O-])ccc2C)cc1 (stereo not drawn) | TK-10 renal | > 100 µM |
| Cn1cnc([N+](=O)[O-])c1Sc1nc2ccccc2o1 | TK-10 renal | 22.9 µM |
| O=C1NC(=S)N/C1=C\c1ccc(Cl)cc1 | TK-10 renal | > 100 µM |
| CC(=O)NNc1nc(C)c(C(/C=C/c2ccc(Cl)cc2)=N\N=C(N)N)s1 | TK-10 renal | > 100 µM |
| O=c1sc(Nc2ccc3ccccc3c2Cl)nc2ccccc12 | TK-10 renal | > 100 µM |
| COc1ccc(Cc2cc(OC)c(OC)c(OC)c2)cc1 | TK-10 renal | > 100 µM |
| CC1OC(OC2C(OC(=O)[C@]34CCC(C)(C)CC3C3=CCC5[C@@]6(C)C[C@H](O)[C@H](OC7OC(COC8OC(CO)C(O)C(O)C8O)C(O)C(O)C7O)[C@@](C)(C(=O)O)C6CC[C@@]5(C)C3(C)CC4)OCC(O)C2O)C(O)C(O)C1OC1OCC(O)C(O)C1O (stereo partly drawn) | TK-10 renal | > 100 µM |
| C1=Nc2ccccc2Cn2nncc21 | TK-10 renal | > 100 µM |
| O=C1C=CC(=O)c2c(O)c(NCCO)c(Cl)c(O)c21 | TK-10 renal | > 10 µM |
| CCOC(=O)NC(Nc1ccc(S(=O)(=O)Nc2ccc(OC)nn2)cc1)(C(F)(F)F)C(F)(F)F | TK-10 renal | 68.8 µM |
| COC(=O)CC1C2(C)C3=C(C)C(c4ccoc4)CC3OC2C2OC(=O)C3(C)C=CC(=O)C1(C)C23 (stereo not drawn) | TK-10 renal | 5.94 µM |
| O=C(/C=C\c1ccsc1)c1ccccc1 | TK-10 renal | 29.3 µM |
| N#CC(NNC(=O)c1c(Cl)c(Cl)c(Cl)c(Cl)c1-c1nc2ccc(C(=O)c3ccccc3)cc2[nH]1)c1ccccc1 (stereo not drawn) | TK-10 renal | 90.8 µM |
| COc1ccc(C2=NN(C=O)C(c3ccc(OS(=O)(=O)c4ccc(C)cc4)c(OC)c3)C2)cc1 (stereo not drawn) | TK-10 renal | > 100 µM |
| COc1ccc(N=C(CS(=O)c2ccc(C)cc2)C(F)(F)F)cc1 (stereo not drawn) | TK-10 renal | > 100 µM |
| O=C(NNC(=S)Nc1ccc(Cl)cc1)C12CC3CC(CC(C3)C1)C2 | TK-10 renal | 70.8 µM |
| Nc1nc(=S)c2ncn(C3OC(CO)C(O)C3O)c2[nH]1 (stereo not drawn) | TK-10 renal | > 64.8 µM |
| COC(=O)C(=O)C(C#N)c1cccc(Cl)c1 (stereo not drawn) | TK-10 renal | > 100 µM |
| Fc1ccc(Nc2ncc(-c3cc(F)c(Cl)cc3Cl)s2)cc1Cl | TK-10 renal | 21.8 µM |
| CC(=O)N(C)c1cc(NCc2ccccc2)ccc1OCc1ccccc1 | TK-10 renal | 33.5 µM |
| COc1ccc(C2CC(c3ccccc3)=NN2C(=O)c2cc(OC)c(OC)c(OC)c2)cc1O (stereo not drawn) | TK-10 renal | > 100 µM |
| CSCCC(NC(=O)Cc1ccc(C(=O)c2ccccc2)cc1)C(=O)N1CCN(CCCCN2c3ccccc3Sc3cc(N=[N+]=[N-])ccc32)CC1 (stereo not drawn) | TK-10 renal | > 100 µM |
| O=c1ccc2c(Cl)cccc2o1 | TK-10 renal | > 100 µM |
| C=C[C@]1(C)CC(=O)C(C(C)C=O)[C@]12C(=O)Oc1cccc(C)c1C2=O (stereo partly drawn) | TK-10 renal | 28.2 µM |
| Cc1ccc2nc(Sc3c([N+](=O)[O-])ncn3C)[nH]c2c1 | TK-10 renal | > 100 µM |
| CC(C)(C)CNCCCNc1ccc(Cl)cc1 | TK-10 renal | 73.9 µM |
| COc1ccc2nc3cc([N+](=O)[O-])ccc3c(NNc3ccc([N+](=O)[O-])cc3)c2c1 | TK-10 renal | > 24.2 µM |
| CCCCC(O)(c1ccccc1)C(O)(c1ccccc1)c1c(F)c(F)c(F)c(F)c1F (stereo not drawn) | TK-10 renal | 84.8 µM |
| N#CCCN(C1=NN(C(=O)CC(=O)Nc2ccc(Cl)cc2)C(c2ccccc2)C1)c1ccc(Cl)cc1 (stereo not drawn) | TK-10 renal | > 100 µM |
| C/C(=N\Nc1nc2ccccc2o1)c1ncccn1 | TK-10 renal | 18.2 µM |
| CC(=O)Nc1c2sscc-2n(C)c1=O | TK-10 renal | 4.83 µM |
| Cc1ccc(C(=O)C(c2nc3n(c2O)C(=N)N=N3)c2nc3n(c2O)C(=N)N=N3)cc1 (stereo not drawn) | TK-10 renal | > 100 µM |
| CCCC(=O)N(C)N=Nc1ccc(C(=O)OCC)cc1 | TK-10 renal | > 100 µM |
